The values you see were collected from patent US6642256B2.

Documented melting point across a set of molecules
Structures can show the parent of a compound that is named as a salt.

Here is how some molecules turned out for melting point.
1) O=c1[nH]c2ccc(C3=NOC(CN4CCC([S+]([O-])c5ccc(F)cc5)CC4)C3)cc2o1 (stereo not shown) (as salt: HCl): 170 to 178 °C
2) O=c1[nH]c2ccc(C3=NOC(CN4CCC(O)(Cc5ccccc5)CC4)C3)cc2o1 (stereo not shown) (as salt: HCl): 166 to 170 °C
3) O=C(c1ccc(F)cc1)C1CCN(CC2CC(c3ccc4[nH]c(=O)oc4c3)=NO2)CC1 (stereo not shown): 188 to 190 °C

[in] Look at this molecule and give its reported melting point. COC(=O)C1(CN2CCC(Cc3ccc(F)cc3)CC2)CC(c2ccc3[nH]c(=O)oc3c2)=NO1 (stereo not shown) (as salt: salt)
[out] 146 to 155 °C
